# experimental system: T1, human GARP (glycoprotein A repetitions predominant, LRRC32) on the cell surface (human, UniProt Q14392 20-662)
# T1 construct: whole, on cells; also called hGARP; free GARP
# T1 sequence (looked up): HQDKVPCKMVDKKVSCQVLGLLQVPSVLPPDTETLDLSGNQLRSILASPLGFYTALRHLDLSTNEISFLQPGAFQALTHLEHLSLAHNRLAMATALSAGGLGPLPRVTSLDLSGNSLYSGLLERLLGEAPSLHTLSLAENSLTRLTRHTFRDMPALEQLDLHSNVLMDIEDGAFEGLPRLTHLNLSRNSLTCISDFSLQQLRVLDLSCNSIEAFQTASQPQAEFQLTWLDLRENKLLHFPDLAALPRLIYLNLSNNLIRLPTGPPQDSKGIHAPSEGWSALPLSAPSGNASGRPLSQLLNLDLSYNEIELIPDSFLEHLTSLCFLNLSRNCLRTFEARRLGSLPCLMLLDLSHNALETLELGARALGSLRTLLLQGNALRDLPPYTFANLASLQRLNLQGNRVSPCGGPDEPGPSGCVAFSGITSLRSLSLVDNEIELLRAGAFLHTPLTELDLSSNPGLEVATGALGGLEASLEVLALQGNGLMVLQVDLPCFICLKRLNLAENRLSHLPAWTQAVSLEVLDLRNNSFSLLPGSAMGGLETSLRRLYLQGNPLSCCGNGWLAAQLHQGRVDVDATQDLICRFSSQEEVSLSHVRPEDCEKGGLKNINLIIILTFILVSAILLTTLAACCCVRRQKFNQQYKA
# assay name: FACS, Ag(+) cells, heated-sample series, 0 ug/ml antibody (blank)

binder | MFI (MFI)
huPIIO-1VH1VL1 (antibody, V domains shown, Humanized 4D3/PIIO-1 IgG made in Expi293 cells; also called H1L1; HuPIIO-1VH1/L1) VH: QVQLQESGPGLVKPSQTLSLTCTVSGYSITSDYAWNWIRQFPGNKLEWMGYISYSGSTSYTPSLKSRVTISRDTSKNHFSLKLSSVTAADTAVYYCAKSGGDYYGSSSYWYFDVWGQGTMVTVSS VL: DIVLTQSPSSLAVSLGERATMNCKSSQSLLNSRSQKNYLAWYQQKPGQPPKLLIYGASTRGSGVPDRFSGSGSGTDFTLTISSLQAEDVAVYYCQNDHSYPFTFGQGTKLEIKR | 9.91
huPIIO-1VH2VL2 (antibody, V domains shown, Humanized IgG from Expi293, tested as culture supernatant; also called H2L2; HuPIIO-1VH2/L2) VH: QVQLQESGPGLVKPSQTLSLTCTVSGYSITSDYAWNWIRQFPGNKLEWMGYISYSGSTSYTPSLKSRITISRDTSKNHFFLKLSSVTAADTAVYYCAKSGGDYYGSSSYWYFDVWGQGTMVTVSS VL: DIVLTQSPSSLAVSLGERVTMNCKSSQSLLNSRSQKNYLAWYQQKPGQPPKLLIYGASTRGSGVPDRFSGSGSGTDFTLTISSVQAEDVAVYYCQNDHSYPFTFGQGTKLEIKR | 9.91

Where these numbers come from: patent US20240425571A1
